molecular target: human emopamil binding protein and human 7-dehydrocholesterol reductase (hEBP-DHCR7) (Homo sapiens)
pKi: −log10 of the molar value.
measure_name: pKi

Some solved entries appear below for comparison.
compound	number
O=S1(=O)CC2(CCN([C@@H]3C[C@@H]4[C@H](C3)[C@H]4c3cc(C(F)(F)F)nn3CC(F)F)CC2)C1 (single isomer, unassigned) [Compound 62*]	6.87
CC(C)n1nc(-c2ccnc(C(F)(F)F)c2)cc1[C@H]1[C@@H]2C[C@@H](N3CCC4(C3)CS(=O)(=O)C4)C[C@@H]21 (single isomer, unassigned) [Compound 18]	7.77
CC(C)n1nc(C(F)(F)F)cc1[C@H]1[C@@H]2C[C@@H](N3CCC4(CC3)CS(=O)(=O)C4)C[C@@H]21 (single isomer, unassigned) [Compound 43*]	7.30
CCn1nc(-c2cncc(C(F)(F)F)c2)cc1[C@H]1[C@@H]2C[C@H](N3CCC4(C3)CS(=O)(=O)C4)C[C@@H]21 (single isomer, unassigned) [Compound 25]	7.84
CC(C)n1nc(-c2cccc(C(F)(F)F)c2)cc1[C@H]1[C@@H]2C[C@@H](N3CCC4(C3)CS(=O)(=O)C4)C[C@@H]21 (single isomer, unassigned) [Compound 2]	8.23

(A) CCn1nc(-c2cncc(F)c2)cc1[C@H]1[C@@H]2C[C@H](N3CCC4(CC3)CS(=O)(=O)C4)C[C@@H]21 (single isomer, unassigned) [Compound 67*]
(B) CC(C)n1nc(-c2ccnc(C(F)(F)F)n2)cc1[C@H]1[C@@H]2C[C@@H](N3CCC4(C3)CS(=O)(=O)C4)C[C@@H]21 [Compound 28]
QUERY: // select label with min value of measured pKi from [ A , B ] Write the label of whichever entry you select.
RESULT: A
(A: 6.77, B: 7.61)

====

target: human emopamil binding protein and human 7-dehydrocholesterol reductase (hEBP-DHCR7) (Homo sapiens, UniProt Q15125)
Sequence (Q15125 whole entry): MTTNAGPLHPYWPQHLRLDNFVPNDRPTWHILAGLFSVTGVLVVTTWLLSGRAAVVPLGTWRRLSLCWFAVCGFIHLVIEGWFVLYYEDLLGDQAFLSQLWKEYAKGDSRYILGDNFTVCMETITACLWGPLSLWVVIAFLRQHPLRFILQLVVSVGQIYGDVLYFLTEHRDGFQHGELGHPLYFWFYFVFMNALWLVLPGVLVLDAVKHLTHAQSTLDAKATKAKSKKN
measure_name: Ki (nM)

compound	units	Ki
CC(C)n1nc(C(F)(F)F)cc1[C@H]1[C@@H]2C[C@@H](N3CCC4(C3)CS(=O)(=O)C4)C[C@@H]21 (single isomer, unassigned) [Compound 22]	nM	12.4

(A) CC(C)(C)n1nc(-c2cccc(C(F)(F)F)c2)nc1[C@H]1[C@@H]2C[C@H](N3CCC4(C3)CS(=O)(=O)C4)C[C@@H]21 (single isomer, unassigned) [Compound 76]
(B) O=S1(=O)CC[C@]2(CCCN([C@@H]3C[C@@H]4[C@H](C3)[C@H]4c3cc(C(F)(F)F)nn3CC(F)F)C2)C1 (single isomer, unassigned) [Compound 87*]
QUERY: Larger number for Ki: A , or B ? Write the label of whichever entry you select.
RESULT: B

====

system: EpiSC-derived OPCs; assay: In vitro phenotypic screening of OPCs (MBP high-content imaging); assay type: cell-based; conditions: Mus musculus, 72 h; percentage of MBP-positive oligodendrocytes, 3 days, 0.5 nM to 1000 nM; read-out: OPC EC50
measure_name: EC50 (nM)

Some solved entries appear below for comparison.
compound	EC50 [nM]
CC(C)n1nc(-c2cncc(C(F)(F)F)c2)cc1[C@H]1[C@@H]2C[C@H](N3CC4(C3)CS(=O)(=O)C4)C[C@@H]21 (single isomer, unassigned)	300
CC(C)n1nc(-c2cccc(C(F)(F)F)c2)cc1[C@H]1[C@@H]2C[C@@H](N3CCC4(C3)CS(=O)(=O)C4)C[C@@H]21 (single isomer, unassigned)	0.9
CC(C)n1nc([C@H]2CC[C@](O)(C(F)(F)F)CC2)cc1[C@H]1[C@@H]2C[C@@H](N3CCC4(C3)CS(=O)(=O)C4)C[C@@H]21 (single isomer, unassigned)	175

(A) CC(C)n1nc(-c2cccc(C(F)(F)F)c2)nc1[C@H]1[C@@H]2C[C@@H](N3CCC4(C3)CS(=O)(=O)C4)C[C@@H]21
(B) CCn1nc(-c2cccnc2)cc1[C@H]1[C@@H]2C[C@H](N3CCC4(C3)CS(=O)(=O)C4)C[C@@H]21 (single isomer, unassigned)
QUERY: // select label with min value of measured EC50 from [ A , B ] Write the label of whichever entry you select.
RESULT: A

These measurements were taken from patent US20240391930A1.
